Experiment: solubility of Drug 4 polymorphs in water
Assay type: physicochemical
Conditions: Drug 4 mesylate polymorph, read-out: solubility in water
propertyLabel: solubility (µg/mL)
Response body: numeric value in µg/mL, unit text excluded.

Which solubility value belongs to C#Cc1cccc(Nc2ncnc3cc(OCCOC)c(OCCOC)cc23)c1 [“A” form] ? 102
